- target of assay: human macrophage migration inhibitory factor (MIF) (human, UniProt P14174 2-115)
- Sequence (P14174 2-115 limits assumed): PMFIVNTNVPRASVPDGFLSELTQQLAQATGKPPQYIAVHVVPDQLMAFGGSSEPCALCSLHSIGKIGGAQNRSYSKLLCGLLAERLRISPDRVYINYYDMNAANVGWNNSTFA
- method summary: cell-based or functional assay
Below, each entry is listed alongside its reported MIF Stimulated SRE Transcription (% MIF Activity), 10 µg mab/ml.
Numbers only here, please. The scale is %.

What MIF Stimulated SRE Transcription (% MIF Activity), 10 µg mab/ml value was documented for this binder, anti-MIF monoclonal antibody 6B5-5 (antibody, V domains shown) VH: DVQLQESGPGLVKPSQSLSLTCTVTGSSITSDYAWHWIRQFPGNKLEWMGYISFSGSTGYNPSLKSRFSITRDTSKNQFFLQLNSVTTEDTATYYCAREAYGYDVGYFDYWGQGTTLTVSS VL: QIVLTQSPAIMSAFPGEKVTITCSASSSVSYMHWFQQKPGTSPKLWIYGTSNLASGVPVRFSGSGSGTSYSLTISRMEAEDAATYYCQQRSSYPWTFGGGTKLEIKR ? 36

Same for anti-MIF monoclonal antibody 22F11-6 (antibody, V domains shown, Mouse hybridoma antibody from a MIF knockout mouse, purified from ascites; also called Mab 22F11-6) VH: EVKLEESGGGLVQPGGSMKLSCAASGFTFGDAWMYWVRQSPEKGLEWVAEIRSKAHNHATYYAESVKGRFTISRDDSKSSVYLQMSSLRAEDTGIYYCTSHHYGSSWYFDVWGAGTTVTVSS VL: DIQMTQSPASLSASVGETVTITCRASENIYSYLTWFQQKQGKSPQLLVYDAKTLAEGVPSSFSGSGSGTQFSLKIISLQPEHFGSYYCQHHYGRPYTFGGGTKLEIKR 42

Same for anti-MIF monoclonal antibody 19B11-7 (antibody, V domains shown, Mouse hybridoma antibody from a MIF knockout mouse, purified from ascites) VH: QIQLVQSGPELKKPGETVKISCKASGYSFRNYGMNWVSQPPGKGLEWMGWINTYTGEPTYADDFKGRFAFSLDTSASTAYLTINNLKNEDTATYFCARSNYGNYFDYWGQGTTLTVSA VL: NIVLTQSPASLALSLGQRATISCRTSESVDSYASSFMHWYQQKPGQSPKLLIYLASNLESGVPARFSGSGSRTDFTLTIDPVEADDAATYYCQQSNEDPRTFGGGTQLEIKR 29

Same for anti-MIF monoclonal antibody 33G7-9 (antibody, V domains shown) VH: DVQLQESGPDLVKPSQSLSLTCSVTGYSITSGYYWNWIRQFPGNKLEWVGYLSYDGSKSHNPSLRNRISITRDPSKNQFFLKLNSVTTEDTATYYCARGGKIFYGSSYDPFAYWGQGTLVTVSS VL: DIQMTQSPASLSASVGETVTITCRASENIFNYLSWYQQKQGKSPQLLVYNVKTLTDGVPSRFSGSGSGTQFSLKINSLQPEDFGSYYCQHHYDTPYTFGRGTKLEIKR 5

Sourced from patent US7294753
